Test system: SK-HEP-1 cells
Experiment: in vitro cell proliferation assay ([3H]-thymidine incorporation), SK-HEP-1
Conditions: Homo sapiens, SK-HEP1, 24 h, read-out: IC50 (nM) 24 hours
Value Kind: IC50 (nM)
Quick note: give the figure in nM, leave out the unit.

## Input For SK-HEP-1 cells, provide IC50 of COc1cc([C@@H]2c3cc4c(cc3[C@@H](O[C@@H]3O[C@@H]5CO[C@@H](C)O[C@H]5[C@H](O)[C@H]3O)[C@H]3COC(=O)[C@H]23)OCO4)cc(OC)c1O [Etoposide] please.
## Output 116

* * *

System: SK-HEP-1 cells
Test: in vitro cell proliferation assay ([3H]-thymidine incorporation), SK-HEP-1
Settings: Homo sapiens, SK-HEP1, 72 h, read-out: IC50 (nM) 72 hours
Value Kind: IC50
I'd appreciate it if you included the unit after the number.

## Input For SK-HEP-1 cells, provide IC50 of COc1cc([C@@H]2c3cc4c(cc3[C@@H](O[C@@H]3O[C@@H]5CO[C@@H](C)O[C@H]5[C@H](O)[C@H]3O)[C@H]3COC(=O)[C@H]23)OCO4)cc(OC)c1O [Etoposide] please.
## Output 50 nM
